In this section we review reported Anti-CD28 Fab (SEQ ID NOs: 202, 203) signal values for a set of binders.
target: Anti-CD28 Fab (SEQ ID NOs: 202, 203); assay: phage binding ELISA on captured Fab;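 note: clonal phage supernatants added briefly to wells pre-incubated with CD28 antigen or with blocking buffer only, then washed, bound phage read by ELISA using HRP-coupled anti-M13 antibody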
Sequence (VH, as listed by the source, chain 1 of 2): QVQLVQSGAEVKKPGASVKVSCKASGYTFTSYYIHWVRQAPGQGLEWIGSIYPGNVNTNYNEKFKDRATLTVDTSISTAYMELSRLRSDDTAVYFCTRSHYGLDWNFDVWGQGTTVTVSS
Sequence (VL, as listed by the source, chain 2 of 2): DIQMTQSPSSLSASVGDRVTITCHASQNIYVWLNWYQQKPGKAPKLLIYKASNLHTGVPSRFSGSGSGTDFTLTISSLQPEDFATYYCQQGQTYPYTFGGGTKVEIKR

binder="YCDGHHAEYMWKCL [Phage-791]" measured=0.93
binder="YCDGHHLEYIDKCL [Phage-838]" measured=0.69

Next item in the queue.
Exercise: Requested field: Anti-CD28 Fab (SEQ ID NOs: 202, 203) signal. Item: YCDGHIEMYMSKCM [Phage-855]
Solution: 0.61
